measurement-kind: melting point

The cases that follow already have their melting point on record.
>>> df
                                   compound         result
0  CCOC(=O)c1nnc2ccc(NCCCN3CCC(OC(c4ccccc4)c4ccccc4)CC3)nn12 (hydrate or solvate)  129 to 133 °C
1  O=C(O)/C=C/C(=O)O.c1ccc(C(OC2CCN(CCCCCCOc3ccc4nncn4n3)CC2)c2ccccc2)cc1  144 to 146 °C
2  CCOC(=O)CNC(=O)c1cn2nc(NCCCN3CCC(OC(c4ccccc4)c4ccccc4)CC3)ccc2n1.Cl.Cl         205 °C
3  O=C(O)c1nnc2ccc(NCCCN3CCC(OC(c4ccccc4)c4ccccc4)CC3)nn12 (hydrate or solvate)  102 to 104 °C

Supply reported melting point belonging to this compound: "CC(C)(C)C(=O)OCOC(=O)C(C)(C)n1nc2ccc(NCCCN3CCC(OC(c4ccccc4)c4ccccc4)CC3)nn2c1=O"
162 °C

Supply reported melting point belonging to this compound: "CC(C)(C)c1nnc2ccc(OCCCN3CCC(OC(c4ccccc4)c4ccccc4)CC3)nn12"
125 to 127 °C

Supply reported melting point belonging to this compound: c1ccc(C(OC2CCN(CCCCCCNc3ccc4nncn4n3)CC2)c2ccccc2)cc1 (hydrate or solvate)
124 to 127 °C

Supply reported melting point belonging to this compound: "c1ccc(C(OC2CCN(CCCNc3ccc4ncnn4n3)CC2)c2ccccc2)cc1"
136 to 138 °C

Supply reported melting point belonging to this compound: O=c1[nH]nc2ccc(NCCCN3CCC(OC(c4ccccc4)c4ccccc4)CC3)nn12 (hydrate or solvate)
156 to 170 °C
